Where these numbers come from: paper PMC9785169

Target: 2-oxoglutarate/malate carrier (OGC) (Rattus norvegicus, UniProt P97700)
Construct: OGC purified from rat brain mitochondria, reconstituted into proteoliposomes
Sequence (P97700 2-314): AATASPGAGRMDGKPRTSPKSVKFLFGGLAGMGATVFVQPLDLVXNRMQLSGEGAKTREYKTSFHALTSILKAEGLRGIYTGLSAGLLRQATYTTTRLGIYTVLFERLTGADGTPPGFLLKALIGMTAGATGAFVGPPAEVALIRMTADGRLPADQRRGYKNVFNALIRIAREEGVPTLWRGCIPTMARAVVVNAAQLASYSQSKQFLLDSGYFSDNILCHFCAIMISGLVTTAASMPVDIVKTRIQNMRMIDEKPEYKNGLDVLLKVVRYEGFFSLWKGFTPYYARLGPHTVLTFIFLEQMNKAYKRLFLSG
Assay: […]malate uptake inhibition in proteoliposomes reconstituted with purified OGC, internal hemin
Recorded Metric: IC50 (µM)
Give bare numbers, in µM.

# input Item under review: C=CC1=C(C)C2=Cc3c(C=C)c(C)c4[n]3[Fe]([Cl])[n]3c(c(C)c(CCC(=O)O)c3=CC3=NC(=C4)C(C)=C3CCC(=O)O)=CC1=N2 [hemin] . Reported IC50?
# output 0.082
